Test system: MC5-R (HEK-293 cells expressing MC5-R) (Homo sapiens)
Construct: expressed in transfected cells; host or cells: HEK-293
Sequence (P33032 whole entry): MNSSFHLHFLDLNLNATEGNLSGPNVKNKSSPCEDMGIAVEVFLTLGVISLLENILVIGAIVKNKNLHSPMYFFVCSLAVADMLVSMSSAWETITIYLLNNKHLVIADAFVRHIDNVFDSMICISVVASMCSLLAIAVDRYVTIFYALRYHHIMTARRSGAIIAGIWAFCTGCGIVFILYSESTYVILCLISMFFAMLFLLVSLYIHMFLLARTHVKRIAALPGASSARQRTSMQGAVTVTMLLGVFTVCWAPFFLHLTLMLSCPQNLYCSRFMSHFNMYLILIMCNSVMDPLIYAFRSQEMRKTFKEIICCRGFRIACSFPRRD
Method description: Ki determination by the method of Example 4, MC5-R
Format: cell-based
Measured quantity: Ki (nM)
Express it in nM; write the number only.

Some compounds with known Ki results, for comparison:
compound="N=C(N)NCCCC1C(=O)N2C(COc3ccc4ccccc4c3)CCC2N1C(=O)C(Cc1ccccc1Cl)NC(=O)C(N)COCc1ccccc1 (stereo not shown)" measured_quantity=Ki recorded_number=151
compound="NCCCCC1C(=O)N2C(COc3ccc4ccccc4c3)CCC2N1C(=O)C(Cc1ccc(Cl)cc1)NC(=O)C1Cc2ccccc2CN1 (stereo not shown)" measured_quantity=Ki recorded_number=398
compound="N=C(N)NCCCC1C(=O)N2C(COc3ccc4ccccc4c3)CCC2N1C(=O)C(N)Cc1ccc(Cl)cc1Cl (stereo not shown)" measured_quantity=Ki recorded_number=499

input: Return reported Ki; argument: N=C(N)NCCCC1C(=O)N2C(COc3ccc4ccccc4c3)CCC2N1C(=O)C(Cc1ccccc1Cl)NC(=O)C1Cc2ccccc2CN1 (stereo not shown)
output: 301

* * *

Test system: hMC5-R (Homo sapiens)
Construct: expressed in transfected cells
Method description: Competitive inhibition binding assay, 125I-NDP-α-MSH, MC5-R
Measured quantity: inhibition at 1 µM (%)
Express it in %; write the number only.

Some compounds with known inhibition at 1 µM results, for comparison:
compound="N=C(N)NCCCC1C(=O)N2C(COc3ccc4ccccc4c3)CCC2N1C(=O)C(Cc1ccccc1Cl)NC(=O)C(N)COCc1ccccc1 (stereo not drawn) [Example 30]" recorded_number=94
compound="N=C(N)NCCCC1C(=O)N2C(Cc3ccc4ccccc4c3)CCC2N1C(=O)C(N)Cc1ccc(Cl)cc1Cl (stereo not drawn) [Compound G]" recorded_number=46

input: Field: inhibition at 1 µM (hMC5-R (Homo sapiens)). Entry: N=C(N)NCCCC1C(=O)N2C(COc3ccc4ccccc4c3)CCC2N1CC(N)Cc1ccc(Cl)cc1Cl (stereo not drawn) [Compound O]
output: 49

* * *

Recorded inhibition at 1 µM values for a group of compounds are listed next.
Test system: hMC5-R (Homo sapiens, UniProt P33032)
Construct: expressed in transfected cells
Method description: Competitive inhibition binding assay, 125I-NDP-α-MSH, MC5-R
Report as: number unit

Some compounds with known inhibition at 1 µM results, for comparison:
compound="[2H]N[C@@H](Cc1ccccc1)C(=O)N1C2CC[C@H](COc3ccccc3)N2C(=O)[C@@H]1CCCCN (stereo partly shown) [Example 36]" result=0%
compound="CCCCCCC(=O)NC(COCc1ccccc1)C(=O)NC(Cc1ccc(Cl)cc1)C(=O)N1C(CCCCN)C(=O)N2C(COc3ccc4ccccc4c3)CCC21 (stereo not shown) [Example 12]" result=95%
compound="NCCCCC1C(=O)N2C(COc3ccc4ccccc4c3)CCC2N1C(=O)C(Cc1ccc(Cl)cc1)NC(=O)C1Cc2ccccc2CN1 (stereo not shown) [Example 11]" result=73%

Next:
input: Return reported inhibition at 1 µM; argument: N=C(N)NCCCC1C(=O)N2C(COc3ccc4ccccc4c3)CCC2N1C(=O)C(Cc1ccccc1Cl)NC(=O)C1Cc2ccccc2CN1 (stereo not shown) [Example 29]
output: 87%

* * *

Test system: hMC5-R (Homo sapiens)
Construct: expressed in transfected cells
Method description: Competitive inhibition binding assay, 125I-NDP-α-MSH, MC5-R
Protocol: Incubation was for 90 minutes at room temperature, after which the assay mixture was filtered and the membranes washed three times with ice cold buffer. The filter was dried and counted in a gamma counter for remaining radioactivity bound to the membranes. […] Each assay was conducted in triplicate and the actual mean values are described.
Measured quantity: inhibition at 1 µM (%)
Express it in %; write the number only.

Some molecules with known inhibition at 1 µM results, for comparison:
molecule="[2H]N[C@@H](Cc1ccccc1)C(=O)N1C2CC[C@H](COc3ccc4ccccc4c3)N2C(=O)[C@@H]1CCCCN (stereo partly drawn)" test_system="hMC5-R (Homo sapiens)" recorded_number=1
molecule="[2H]N[C@@H](Cc1cnc[nH]1)C(=O)N[C@@H](Cc1ccccc1)C(=O)N1C2CC[C@H](COc3ccc4ccccc4c3)N2C(=O)[C@@H]1CCCCN (stereo partly drawn)" test_system="hMC5-R (Homo sapiens)" recorded_number=0

input: Return reported inhibition at 1 µM; argument: N=C(N)NCCCC1C(=O)N2C(COc3ccc4ccccc4c3)CCC2N1C(=O)C(N)Cc1ccc(Cl)cc1Cl (stereo not drawn)
output: 69
